Attribution: ChEMBL document CHEMBL1287811

- System: MCF7
- PROCEDURE TEXT: Growth inhibition of human MCF7 cells by Sulforhodamine B assay
- Assay type: functional

[
  {
    "COMPOUND": "C=C1C(C/C=C2\\COC(=O)C2)[C@@]2(C)CCCC(C)(C)[C@@H]2C[C@@H]1O (stereo not given in full)",
    "MODIFIER": "=",
    "GI50 / µM": 44.7
  },
  {
    "COMPOUND": "CCOC(=O)/C=C/c1ccc(O)c(OC)c1 [ETHYL FERULATE]",
    "MODIFIER": "=",
    "GI50 / µM": 86.3
  },
  {
    "COMPOUND": "CC1(C)CCC[C@]2(C)[C@@H](/C=C/C3=CCOC3=O)C(C=O)=CC(=O)[C@@H]12",
    "MODIFIER": "=",
    "GI50 / µM": 69.9
  },
  {
    "COMPOUND": "CC1=CC(=O)[C@H]2C(C)(C)CCC[C@]2(C)C1/C=C/C1=CC(O)OC1=O (stereo not given in full)",
    "MODIFIER": "=",
    "GI50 / µM": 28.5
  },
  {
    "COMPOUND": "COC(=O)Nc1nc2cc(C(=O)c3cccs3)ccc2[nH]1",
    "MODIFIER": "<",
    "GI50 / µM": 0.1
  }
]

====

Each record here notes measured LC50 (concentration killing 50% of cells).
- Test system: MCF7
- PROCEDURE TEXT: Growth inhibition of human MCF7 cells by Sulforhodamine B assay
- Assay type: functional
MEASURED ENDPOINT: LC50 (concentration killing 50% of cells) (µM)

[
  {
    "COMPOUND": "C=C1CC[C@H]2C(C)(C)CCC[C@]2(C)[C@H]1C/C=C1/CC(OC)OC1=O (stereo not given in full)",
    "ASSAY SYSTEM": "MCF7",
    "OBSERVED VALUE": 31.6
  },
  {
    "COMPOUND": "CC1=CC(=O)[C@H]2C(C)(C)CCC[C@]2(C)[C@H]1/C=C/c1ccoc1",
    "ASSAY SYSTEM": "MCF7",
    "OBSERVED VALUE": 19.8
  },
  {
    "COMPOUND": "CC1=CC(=O)[C@H]2C(C)(C)CCC[C@]2(C)[C@H]1/C=C/C1=CCOC1=O",
    "ASSAY SYSTEM": "MCF7",
    "OBSERVED VALUE": 19.8
  },
  {
    "COMPOUND": "C=C1CC[C@H]2C(C)(C)CCC[C@]2(C)[C@H]1C/C=C1/CC(O)OC1=O (stereo not given in full)",
    "ASSAY SYSTEM": "MCF7",
    "OBSERVED VALUE": 21.9
  },
  {
    "COMPOUND": "CC1(C)CCC[C@]2(C)[C@@H](/C=C/C3=CC(=O)OC3)C(CO)=C(O)C(=O)[C@@H]12",
    "ASSAY SYSTEM": "MCF7",
    "OBSERVED VALUE": 15.4
  }
]

====

- Test system: HeLa
- PROCEDURE TEXT: Growth inhibition of human HeLa cells by Sulforhodamine B assay
- Type: functional
Each record here notes measured GI50.

[
  {
    "COMPOUND": "CC1=CC(=O)[C@H]2C(C)(C)CCC[C@]2(C)[C@H]1/C=C/C1=CCOC1=O",
    "ENDPOINT UNIT": "µM",
    "MODIFIER": "=",
    "GI50": 83.6
  },
  {
    "COMPOUND": "COC(=O)Nc1nc2cc(C(=O)c3cccs3)ccc2[nH]1",
    "ENDPOINT UNIT": "µM",
    "MODIFIER": "=",
    "GI50": 0.75
  },
  {
    "COMPOUND": "CC1=CC(=O)[C@H]2C(C)(C)CCC[C@]2(C)C1/C=C/C1=CC(O)OC1=O (some centres undefined)",
    "ENDPOINT UNIT": "µM",
    "MODIFIER": ">",
    "GI50": 100
  },
  {
    "COMPOUND": "COc1cc(/C=C/C=O)ccc1O",
    "ENDPOINT UNIT": "µM",
    "MODIFIER": "=",
    "GI50": 61.8
  },
  {
    "COMPOUND": "C=C1CC[C@H]2C(C)(C)CCC[C@]2(C)[C@H]1CCC1=CC(O)OC1=O (some centres undefined)",
    "ENDPOINT UNIT": "µM",
    "MODIFIER": "=",
    "GI50": 36.3
  },
  {
    "COMPOUND": "CC1(C)CCC[C@]2(C)[C@@H](/C=C/C3=CCOC3=O)C(C=O)=CC(=O)[C@@H]12",
    "ENDPOINT UNIT": "µM",
    "MODIFIER": "=",
    "GI50": 76.9
  },
  {
    "COMPOUND": "C=C1CC[C@H]2C(C)(C)CCC[C@]2(C)[C@H]1C/C=C1/CC(O)OC1=O (some centres undefined)",
    "ENDPOINT UNIT": "µM",
    "MODIFIER": "=",
    "GI50": 47
  },
  {
    "COMPOUND": "C=C1C(C/C=C2\\COC(=O)C2)[C@@]2(C)CCCC(C)(C)[C@@H]2C[C@@H]1O (some centres undefined)",
    "ENDPOINT UNIT": "µM",
    "MODIFIER": "=",
    "GI50": 62.1
  },
  {
    "COMPOUND": "CCOC(=O)/C=C/c1ccc(O)c(OC)c1 [ETHYL FERULATE]",
    "ENDPOINT UNIT": "µM",
    "MODIFIER": "=",
    "GI50": 52.8
  }
]
